target-under-test: purified human platelet fibrinogen receptor (GPIIb/IIIa) (Homo sapiens, UniProt P05106+P08514)
Construct: is isolated from human platelet lysates; from tissue
Sequence (P08514 32-887 limits assumed): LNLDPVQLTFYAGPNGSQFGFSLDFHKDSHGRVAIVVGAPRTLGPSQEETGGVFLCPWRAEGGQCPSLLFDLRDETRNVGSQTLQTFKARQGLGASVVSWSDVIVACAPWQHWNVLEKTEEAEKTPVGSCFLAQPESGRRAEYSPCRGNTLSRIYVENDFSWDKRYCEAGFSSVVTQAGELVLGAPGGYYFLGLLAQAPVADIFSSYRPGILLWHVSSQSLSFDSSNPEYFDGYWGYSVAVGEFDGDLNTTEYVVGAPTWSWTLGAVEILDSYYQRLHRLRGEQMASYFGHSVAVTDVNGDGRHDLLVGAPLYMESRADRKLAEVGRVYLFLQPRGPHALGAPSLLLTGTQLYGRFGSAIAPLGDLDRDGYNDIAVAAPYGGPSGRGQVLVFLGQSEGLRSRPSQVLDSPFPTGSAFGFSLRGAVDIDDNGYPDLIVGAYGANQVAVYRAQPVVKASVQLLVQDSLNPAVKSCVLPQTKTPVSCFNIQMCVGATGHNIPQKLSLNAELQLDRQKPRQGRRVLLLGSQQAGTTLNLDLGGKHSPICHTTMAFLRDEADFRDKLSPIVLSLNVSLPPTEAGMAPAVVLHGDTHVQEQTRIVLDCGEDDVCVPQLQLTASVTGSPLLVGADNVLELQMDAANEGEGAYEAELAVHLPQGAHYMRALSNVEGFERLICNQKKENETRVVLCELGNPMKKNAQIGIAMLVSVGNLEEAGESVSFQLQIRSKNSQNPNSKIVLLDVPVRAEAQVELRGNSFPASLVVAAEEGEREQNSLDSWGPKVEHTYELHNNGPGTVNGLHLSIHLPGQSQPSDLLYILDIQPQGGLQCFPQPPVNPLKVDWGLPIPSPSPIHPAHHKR
Sequence (P08514 891-1039 limits assumed): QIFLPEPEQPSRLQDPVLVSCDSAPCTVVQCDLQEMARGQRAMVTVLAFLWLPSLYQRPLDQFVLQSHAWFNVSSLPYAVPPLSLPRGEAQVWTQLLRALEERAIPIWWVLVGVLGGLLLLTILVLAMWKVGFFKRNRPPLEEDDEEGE
Sequence (P05106 27-788): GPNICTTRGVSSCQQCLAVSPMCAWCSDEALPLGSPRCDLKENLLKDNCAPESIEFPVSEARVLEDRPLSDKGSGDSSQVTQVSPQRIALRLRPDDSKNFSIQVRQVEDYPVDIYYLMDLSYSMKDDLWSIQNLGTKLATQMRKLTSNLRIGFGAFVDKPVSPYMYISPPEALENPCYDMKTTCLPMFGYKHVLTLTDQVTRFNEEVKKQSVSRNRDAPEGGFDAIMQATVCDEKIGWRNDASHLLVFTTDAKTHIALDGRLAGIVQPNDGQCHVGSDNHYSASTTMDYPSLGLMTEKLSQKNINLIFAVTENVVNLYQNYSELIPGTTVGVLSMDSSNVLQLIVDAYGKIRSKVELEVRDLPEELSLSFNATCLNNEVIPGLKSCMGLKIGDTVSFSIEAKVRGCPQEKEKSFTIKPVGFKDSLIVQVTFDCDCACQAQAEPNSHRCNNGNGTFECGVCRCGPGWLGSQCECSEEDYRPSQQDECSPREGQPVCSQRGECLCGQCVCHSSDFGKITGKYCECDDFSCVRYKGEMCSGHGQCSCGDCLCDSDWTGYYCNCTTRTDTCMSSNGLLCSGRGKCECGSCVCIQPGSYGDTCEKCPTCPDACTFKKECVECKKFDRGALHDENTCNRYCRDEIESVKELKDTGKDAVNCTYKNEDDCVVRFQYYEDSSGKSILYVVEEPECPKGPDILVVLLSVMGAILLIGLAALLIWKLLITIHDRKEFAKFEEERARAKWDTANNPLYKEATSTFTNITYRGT
assay-procedure: Test (b): GPIIb/IIIa ELISA, inhibition of biotinylated fibrinogen binding
condition-summary: purified human platelet GPIIb/IIIa, ELISA; read-out: Test (b): pIC50 (-log(IC50)), 50% inhibition of biotinylated fibrinogen binding to GPIIb/IIIa (converted)
recorded-endpoint: IC50 (µM)

COC(=O)C(Oc1ccc(C(=O)CN2CCN(c3ccncc3)CC2)cc1)C(=O)OC; 0.501

A = CCCCS(=O)(=O)N[C@H](Cc1ccc(OCC2CCN(c3ccncc3)CC2)cc1)C(=O)OC
B = COC(=O)C(Cc1ccc(OCc2cnccc2N(C)C)cc1)NC(=O)OCc1ccccc1 (centres unmarked)
Given the listed records, identify the one among A and B with higher IC50. Respond using the label that marks the chosen record. A

* * *

target-under-test: purified human platelet fibrinogen receptor (GPIIb/IIIa) (Homo sapiens, UniProt P05106+P08514)
Construct: is isolated from human platelet lysates; from tissue
assay-procedure: Test (b): GPIIb/IIIa ELISA, inhibition of biotinylated fibrinogen binding
condition-summary: purified human platelet GPIIb/IIIa, ELISA; read-out: Test (b): pIC50 (-log(IC50)), 50% inhibition of biotinylated fibrinogen binding to GPIIb/IIIa (converted)
Where a name gives a salt, the structure may show the parent alone.
recorded-endpoint: IC50 (µM)

Below: 2 compounds and their reported IC50.
CC(C)(C)OC(=O)COc1ccc(CC(=O)N2CCN(c3ccncc3)CC2)cc1; 20
CN(C)c1ccncc1CCCOc1ccc(OCCCC(=O)O)cc1; 0.501

a = O=C(O)COc1ccc(C(=O)CN2CCN(c3ccncc3)CC2)c2ccccc12 [Example 124, dihydrochloride]
b = CCOC(=O)c1ccc(C(=O)CN2CCN(c3ccncc3)CC2)cc1
# min-compare on IC50 between a and b Respond using the label that marks the chosen record. a
(a: 0.251 µM, b: 31.6 µM)

* * *

target-under-test: human, citrated, platelet-rich plasma (Homo sapiens, UniProt P05106+P08514)
Construct: aggregating human, citrated, platelet-rich plasma; endogenous in cells; host or cells: human platelets in citrated platelet-rich plasma
assay-procedure: Test (a): inhibition of ADP stimulated platelet aggregation (Born)
Type: cell-based
condition-summary: ADP induced aggregation of human platelet-rich plasma; read-out: Test (a): pA2 value indicating potency of platelet aggregation inhibition (converted)
Counter-ions that a name gives are not always drawn.
recorded-endpoint: Kb (µM)

COC(=O)COc1c(Cl)cc(C(=O)CN2CCN(c3ccncc3)CC2)cc1Cl [Example 116]; 2

1 = CCCc1cc(N2CCN(c3ccncc3)CC2)ccc1OCCCC(=O)OCC [Example 207]
2 = Cc1ccc(S(=O)(=O)NCc2ccc(NC(=O)C3CCN(c4ccncc4)CC3)cc2)cc1 [Example 171]
3 = CCCCC(=O)N[C@@H](Cc1ccc(OCCC2CCN(c3ccncc3)CC2)cc1)C(=O)OC [Example 91]
4 = O=C(O)Cc1ccc(C(=O)CN2CCN(c3ccncc3)CC2)cc1 [Example 15, trifluoroacetate salt]
5 = COC(=O)COc1ccc(C(=O)CC2CCN(c3ccncc3)CC2)cc1 [Example 173]
Task field, ranking: reported Kb, descending order. Labels, ranked as asked. 2, 4, 5, 1, 3
(2: 6.31 µM, 4: 2.51 µM, 5: 1.26 µM, 1: 0.316 µM, 3: 0.158 µM)

* * *

target-under-test: purified human platelet fibrinogen receptor (GPIIb/IIIa) (Homo sapiens, UniProt P05106+P08514)
Construct: is isolated from human platelet lysates; from tissue
assay-procedure: Test (b): GPIIb/IIIa ELISA, inhibition of biotinylated fibrinogen binding
condition-summary: purified human platelet GPIIb/IIIa, ELISA; read-out: Test (b): pIC50 (-log(IC50)), 50% inhibition of biotinylated fibrinogen binding to GPIIb/IIIa (converted)
Where a name gives a salt, the structure may show the parent alone.
recorded-endpoint: IC50 (nM)

Cc1cc(C(=O)CN2CCN(c3ccncc3)CC2)ccc1OCC(=O)O [Example 127, dihydrochloride]; 200
COC(=O)[C@H](Cc1ccc(OCCC2CCN(c3ccncc3)CC2)cc1)NS(=O)(=O)Cc1ccccc1; 200
COC(=O)CC(NS(=O)(=O)c1ccc(C)cc1)c1ccc(OCC2CCN(c3ccncc3)CC2)cc1 (centres unmarked); 251
O=C(O)COc1ccc(C(=O)NCC2CCN(c3ccncc3)CC2)cc1; 398

1 = COC(=O)COc1ccc(C(=O)CN2CCN(c3ccncc3)CC2)cc1OC
2 = CCCCS(=O)(=O)NC(CC1CCN(C(=O)CN2CCN(c3ccncc3)CC2)CC1)C(=O)O (racemic)
3 = COC(=O)COc1ccc(C(=O)CN2CCN(c3ccnc4ccccc34)CC2)cc1
Hey, can you sort those compounds up there by IC50, smallest first? Labels, ranked as asked. 1, 3, 2
(1: 1000 nM, 3: 3160 nM, 2: 6310 nM)

* * *

target-under-test: purified human platelet fibrinogen receptor (GPIIb/IIIa) (Homo sapiens, UniProt P05106+P08514)
Construct: is isolated from human platelet lysates; from tissue
assay-procedure: Test (b): GPIIb/IIIa ELISA, inhibition of biotinylated fibrinogen binding
condition-summary: purified human platelet GPIIb/IIIa, ELISA; read-out: Test (b): pIC50 (-log(IC50)), 50% inhibition of biotinylated fibrinogen binding to GPIIb/IIIa (converted)
recorded-endpoint: IC50 (nM)

P = O=C(O)COc1ccc(OC2CCN(c3ccncc3)CC2)cc1 [Example 156]
Q = O=C(O)[C@H]1CC[C@H](Oc2ccc(N3CCN(c4ccncc4)CC3)cc2)CC1 [Example 231]
R = CCCCS(=O)(=O)N[C@@H](Cc1ccc(OCCC2CCN(c3ccncc3)CC2)cc1)C(=O)O [Example 36]
S = CCCCS(=O)(=O)N[C@@H](Cc1ccc(OC2CCN(c3ccncc3)CC2)cc1)C(=O)O [Example 38]
Rank descending by IC50: all 4 compounds from above. Labels, ranked as asked. P, Q, S, R

* * *

target-under-test: purified human platelet fibrinogen receptor (GPIIb/IIIa) (Homo sapiens, UniProt P05106+P08514)
Construct: is isolated from human platelet lysates; from tissue
assay-procedure: Test (b): GPIIb/IIIa ELISA, inhibition of biotinylated fibrinogen binding
condition-summary: purified human platelet GPIIb/IIIa, ELISA; read-out: Test (b): pIC50 (-log(IC50)), 50% inhibition of biotinylated fibrinogen binding to GPIIb/IIIa (converted)
Experimental: (i) Preparation of human platelet lysates. […] 96 well microtitre plates are coated with 100 μl purified human platelet fibrinogen receptor (GPIIb/IIIa) diluted in coating buffer (Tris-HCl 20 mM, NaCl 150 mM, CaCl2 1 mM, pH 7.4) and left overnight at 4° C. […] Colour is allowed to develop for 10-15 mins before optical densities are read at 650 nm. […]
Structures can show the parent of a compound that is named as a salt.
recorded-endpoint: IC50 (nM)

O=C(O)COc1ccc2c(CN3CCN(c4ccncc4)CC3)cccc2c1 [Example 76]; 1260
O=C(O)CC(NC(=O)c1ccc(N2CCN(c3ccncc3)CC2)cc1)c1ccccc1 (centres unmarked) [Example 59]; 31.6
COC(=O)COc1ccc(C(=O)CN2CCN(c3cc(C)nc(C)c3)CC2)cc1 [Example 153, hydrobromide]; 50100

a = O=C(O)COc1ccc(C(=O)CN2CCN(c3ccncc3)CC2)cc1OCC(=O)O [Example 4]
b = COC(=O)COc1ccc(OCCC2CCN(c3ccncc3)CC2)cc1 [Example 159]
Given the listed records, identify the one among a and b with higher IC50. Respond using the label that marks the chosen record. b

* * *

target-under-test: human, citrated, platelet-rich plasma (Homo sapiens, UniProt P05106+P08514)
Construct: aggregating human, citrated, platelet-rich plasma; endogenous in cells; host or cells: human platelets in citrated platelet-rich plasma
assay-procedure: Test (a): inhibition of ADP stimulated platelet aggregation (Born)
Format: cell-based
condition-summary: ADP induced aggregation of human platelet-rich plasma; read-out: Test (a): pA2 value indicating potency of platelet aggregation inhibition (converted)
Structures can show the parent of a compound that is named as a salt.
recorded-endpoint: Kb (nM)

Below: 5 compounds and their reported Kb.
O=C(O)COc1ccc(C(=O)NC2CCN(c3ccncc3)CC2)cc1 [Example 167, dihydrochloride]; 251
COc1cc(C(=O)CN2CCN(c3ccncc3)CC2)ccc1OCC(=O)O [Example 6]; 63.1
O=C(O)C1CCCC(Oc2ccc(N3CCN(c4ccncc4)CC3)cc2)C1 (centres unmarked) [Example 237]; 794
COC(=O)CNC(=O)COc1ccc(C(=O)CN2CCN(c3ccncc3)CC2)cc1 [Example 146]; 7940
O=C(O)CC(NC(=O)c1ccc(N2CCN(c3ccncc3)CC2)cc1)c1ccccc1 (centres unmarked) [Example 59]; 63.1

P = Cc1ccc(S(=O)(=O)N[C@@H](Cc2ccc(OCCC3CCN(c4ccncc4)CC3)cc2)C(=O)O)cc1 [Example 90]
Q = O=C(O)COc1ccc(C(=O)CN2CCC(=Cc3cnccc3N3CCCC3)C2)cc1 [Example 108]
Given the listed records, identify the one among P and Q with higher Kb. Respond using the label that marks the chosen record. Q
(Q: 501 nM, P: 10 nM)

I = O=C(O)c1ccc(Oc2ccc(N3CCN(c4ccncc4)CC3)cc2)nc1 [Example 233]
II = O=C(O)[C@H](Cc1ccc(OCCC2CCN(c3ccncc3)CC2)cc1)NS(=O)(=O)Cc1ccccc1 [Example 89]
III = CCCCS(=O)(=O)N[C@@H](Cc1ccc(OC2CCN(c3ccncc3)CC2)cc1)C(=O)OC [Example 37]
IV = O=C(O)CCCCN1CCN(c2ccncc2)CC1 [Example 196, dihydrochloride salt]
V = CCOC(=O)C=CCOc1ccc(N2CCN(c3ccncc3)CC2)cc1 [Example 54]
Hey, can you sort those compounds up there by Kb, smallest first? Labels, ranked as asked. II, III, I, V, IV

1 = O=C(CN1CCN(c2ccncc2)CC1)c1ccc2oc(C(=O)O)cc2c1 [Example 26]
2 = COC(=O)COc1ccc(C(=O)CN2CCN(c3ccncn3)CC2)cc1 [Example 47]
Given the listed records, identify the one among 1 and 2 with higher Kb. Respond using the label that marks the chosen record. 2

P = O=C(O)COc1ccc(C(=O)CN2CCN(c3ccncc3)CC2)cc1OCC(=O)O [Example 4]
Q = CC(C)(C)OC(=O)COC1CCCN(C(=O)CN2CCN(c3ccncc3)CC2)C1 (centres unmarked) [Example 103]
# min-compare on Kb between P and Q Respond using the label that marks the chosen record. P
(P: 1.26 nM, Q: 31600 nM)
